test: Pharmacokinetic test in beagle dogs, plasma concentration after oral gavage; type: in vivo; settings: dog, male beagle dogs, oral single gavage, 8 mg/kg
outcomeMeasure: Tmax (h)
Provide the reading as a plain figure in h.

Q) GET /values?readout=Tmax&item= C[C@@H]1CCOc2ccc(F)cc2[C@H]2CCCN2c2ccc3ncc(C#N)c(c3n2)N1 [Example 1]
A) 1.3

---

test: Pharmacokinetic test in beagle dogs, plasma concentration after oral gavage; assay type: in vivo; details: dog, male beagle dogs, oral single gavage, 8 mg/kg
outcomeMeasure: half-life (h)
Please state the figure in h; there is no need to write the unit.

Q) Consider the compound `C[C@@H]1CCOc2ccc(F)cc2[C@H]2CCCN2c2ccc3ncc(C#N)c(c3n2)N1` and give its measured half-life.
A) 19

---

assay: Pharmacokinetic test in beagle dogs, plasma concentration after oral gavage; format: in vivo; conditions: dog, male beagle dogs, oral single gavage, 8 mg/kg, read-out: C0/Cmax
outcomeMeasure: Cmax (ng/mL)
Field: numeric (ng/mL). Do not append units.

Q) Given `C[C@@H]1CCOc2ccc(F)cc2[C@H]2CCCN2c2ccc3ncc(C#N)c(c3n2)N1` , state its recorded Cmax.
A) 729

---

test: Pharmacokinetic test in beagle dogs, plasma concentration after oral gavage; type: in vivo; conditions: dog, male beagle dogs, oral single gavage, 8 mg/kg
outcomeMeasure: AUC(0-t) (ng·h/mL)
Give just the numeric value; ng·h/mL need not be written.

Q) Please report the recorded AUC(0-t) for `C[C@@H]1CCOc2ccc(F)cc2[C@H]2CCCN2c2ccc3ncc(C#N)c(c3n2)N1` .
A) 5340
